Test system: water hyacinth
ASSAY NOTES: Experiment 5 foliar application to water hyacinths; further: key: -: no reproduction, namely complete suppression of reproduction; ±: remarkable suppression of reproduction; +: considerable suppression of reproduction; ++: medium supprestion of reproduction; +++: no suppression of reproduction
Assay type: in vivo, Eichhornia crassipes Solms
CONDITION LABEL: 0.1%; 3 months
Counter-ions that a name gives are not always drawn.
PROPERTY MEASURED: Reproduction-inhibiting effect

{"COMPOUND": "CP(=O)(O)CC[C@H](N)C(=O)O [L-AMPB, L-2-amino-4-methylphosphinobutanoic acid]", "Reproduction-inhibiting effect": "±"}
{"COMPOUND": "C[C@H](NC(=O)[C@H](C)NC(=O)[C@@H](N)CCP(C)(=O)O)C(=O)O [SF-1293 choline]", "Reproduction-inhibiting effect": "±"}
{"COMPOUND": "C[C@H](NC(=O)[C@H](C)NC(=O)[C@@H](N)CCP(C)(=O)O)C(=O)O [SF-1293 diammonium salt]", "Reproduction-inhibiting effect": "+"}
{"COMPOUND": "CP(=O)(O)CCC(N)C(=O)O (racemic) [DL-AMPB]", "Reproduction-inhibiting effect": "++"}

State its Reproduction-inhibiting effect: CP(=O)(O)CCC(N)C(=O)O (racemic) [DL-AMPB disodium salt]
++
